Kindly state IC50 for each of the entries shown.
assay: Antioxidant activity assessed as DPPH free radical scavenging activity in iron free medium; format: functional
Don't forget the unit after the number, please.

INPUT: What IC50 value was documented for this compound, O=c1cc(CSc2nnc(CSc3nc4ccccc4o3)o2)c2c(ccc3ccccc32)o1 ?
OUTPUT: 45.86 µg/mL

INPUT: Record: O=C1O[C@H]([C@@H](O)CO)C(O)=C1O
OUTPUT: 25.74 µg/mL

INPUT: # iterate: Cc1cc(C)c2c(CSc3nnc(CSc4nc5cc(Cl)ccc5o4)o3)cc(=O)oc2c1
OUTPUT: 26.98 µg/mL

INPUT: Next up: O=c1cc(CSc2nnc(CSc3nc4cc(Cl)ccc4o3)o2)c2ccc3ccccc3c2o1
OUTPUT: 23.95 µg/mL

INPUT: Entry Cc1ccc2oc(=O)cc(CSc3nnc(CSc4nc5cc(Cl)ccc5o4)o3)c2c1 please
OUTPUT: 48.69 µg/mL

INPUT: Follow-up item: Cc1ccc2c(CSc3nnc(CSc4nc5cc(Cl)ccc5o4)o3)cc(=O)oc2c1
OUTPUT: 27.73 µg/mL

INPUT: Try this compound too: O=c1cc(CSc2nnc(CSc3nc4cc(Cl)ccc4o3)o2)c2c(ccc3ccccc32)o1
OUTPUT: 26.78 µg/mL

INPUT: Cc1ccc2oc(=O)cc(CSc3nnc(CSc4nc5ccccc5o4)o3)c2c1 ?
OUTPUT: 24.04 µg/mL

INPUT: Another: O=c1cc(CSc2nnc(CSc3nc4ccccc4o3)o2)c2ccc3ccccc3c2o1
OUTPUT: 23.71 µg/mL

INPUT: Item: COc1ccc2oc(=O)cc(CSc3nnc(CSc4nc5cc(Cl)ccc5o4)o3)c2c1
OUTPUT: 52.85 µg/mL

INPUT: Then this compound: Cc1ccc2c(CSc3nnc(CSc4nc5ccccc5o4)o3)cc(=O)oc2c1
OUTPUT: 49.87 µg/mL

INPUT: Would you mind doing Cc1cc(C)c2c(CSc3nnc(CSc4nc5ccccc5o4)o3)cc(=O)oc2c1 as well?
OUTPUT: 33.41 µg/mL

INPUT: COc1ccc2oc(=O)cc(CSc3nnc(CSc4nc5ccccc5o4)o3)c2c1 ?
OUTPUT: 63.09 µg/mL
